Molecular target: T1, pCD163-SRCR1-9-huFc (porcine, UniProt Q2VL90 47-1028, limits assumed)
T1 construct: also called pCD163:SRCR1-9-Fc; pCD163SRCR1-9-Fc; not shown: human Fc (huFc)
T1 sequence: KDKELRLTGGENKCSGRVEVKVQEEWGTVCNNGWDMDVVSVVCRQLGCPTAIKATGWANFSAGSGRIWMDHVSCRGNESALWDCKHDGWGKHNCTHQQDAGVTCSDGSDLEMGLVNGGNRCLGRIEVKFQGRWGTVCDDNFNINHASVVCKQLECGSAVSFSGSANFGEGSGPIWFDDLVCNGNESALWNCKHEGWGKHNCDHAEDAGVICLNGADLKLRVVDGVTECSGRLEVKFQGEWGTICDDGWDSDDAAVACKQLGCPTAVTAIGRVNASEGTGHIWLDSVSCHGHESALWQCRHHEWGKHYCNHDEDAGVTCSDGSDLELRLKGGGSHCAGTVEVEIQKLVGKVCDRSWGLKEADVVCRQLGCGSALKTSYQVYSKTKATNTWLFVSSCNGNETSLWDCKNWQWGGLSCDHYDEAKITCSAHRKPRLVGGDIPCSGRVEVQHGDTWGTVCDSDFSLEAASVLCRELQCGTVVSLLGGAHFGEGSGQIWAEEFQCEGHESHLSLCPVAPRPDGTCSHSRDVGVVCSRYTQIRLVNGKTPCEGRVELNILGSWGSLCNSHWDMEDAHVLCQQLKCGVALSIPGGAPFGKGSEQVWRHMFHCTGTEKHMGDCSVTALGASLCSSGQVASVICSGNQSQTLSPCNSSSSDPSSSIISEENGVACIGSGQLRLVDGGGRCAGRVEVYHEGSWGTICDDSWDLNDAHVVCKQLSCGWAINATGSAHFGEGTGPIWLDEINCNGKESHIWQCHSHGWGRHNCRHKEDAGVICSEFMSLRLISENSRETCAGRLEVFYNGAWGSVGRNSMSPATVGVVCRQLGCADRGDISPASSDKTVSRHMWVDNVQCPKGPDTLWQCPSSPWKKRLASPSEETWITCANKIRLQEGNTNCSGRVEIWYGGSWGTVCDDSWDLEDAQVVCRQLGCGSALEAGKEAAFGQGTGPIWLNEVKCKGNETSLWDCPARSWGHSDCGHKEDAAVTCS
Experiment: SPR (Biacore 3000), antigen amine-coupled on CM5, VHH injected, pH 7.4
Documented koff across a set of binders
reported-metric: koff (s⁻¹)

| binder | assay-value |
| --- | --- |
| VHH 002 (1B04) (VHH, Llama single domain antibody; also called 76(#2); VHCDR3 76(#2); not shown: tags: c-myc tag in periplasmic extract (ELISA, FACS); FLAG and His tags in purified VHH (SPR, infection assays)) VHH: QVQLVESGGGLVQAGGSLRLSCAASGLTFVTYSMGWFRQAPGKEREFVAAHRWSGSAYYAEHADSVEGRFTISRDYAKNMLYLQMNSLKHEDTAVYYCAAGVGSAAQYRYWGRGTQVTVSS | 0.0108 |
| VHH 011 (2B06) (VHH, Llama single domain antibody; also called 57(#11); VHCDR3 57(#11); not shown: tags: c-myc tag in periplasmic extract (ELISA, FACS); FLAG and His tags in purified VHH (SPR, infection assays)) VHH: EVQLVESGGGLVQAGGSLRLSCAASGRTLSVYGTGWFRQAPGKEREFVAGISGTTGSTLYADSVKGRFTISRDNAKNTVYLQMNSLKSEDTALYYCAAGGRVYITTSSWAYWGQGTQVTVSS | 0.01 |
| VHH 001 (1B02) (VHH, Llama single domain antibody; also called 144(#1); VHCDR3 144(#1); not shown: tags: c-myc tag in periplasmic extract (ELISA, FACS); FLAG and His tags in purified VHH (SPR, infection assays)) VHH: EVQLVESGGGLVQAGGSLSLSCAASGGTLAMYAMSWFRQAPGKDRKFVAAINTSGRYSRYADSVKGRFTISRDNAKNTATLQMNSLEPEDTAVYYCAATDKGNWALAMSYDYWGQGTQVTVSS | 0.0178 |
| VHH 018 (3E01) (VHH, Llama single domain antibody; also called 49(#18); VHCDR3 49(#18); not shown: tags: c-myc tag in periplasmic extract (ELISA, FACS); FLAG and His tags in purified VHH (SPR, infection assays)) VHH: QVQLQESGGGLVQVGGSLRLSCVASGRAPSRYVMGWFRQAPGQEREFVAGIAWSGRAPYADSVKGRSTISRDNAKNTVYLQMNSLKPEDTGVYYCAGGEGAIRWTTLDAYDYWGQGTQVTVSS | 0.0134 |
| VHH 016 (2H11) (VHH, Llama single domain antibody; also called 77(#16); VHCDR3 77(#16); not shown: tags: c-myc tag in periplasmic extract (ELISA, FACS); FLAG and His tags in purified VHH (SPR, infection assays)) VHH: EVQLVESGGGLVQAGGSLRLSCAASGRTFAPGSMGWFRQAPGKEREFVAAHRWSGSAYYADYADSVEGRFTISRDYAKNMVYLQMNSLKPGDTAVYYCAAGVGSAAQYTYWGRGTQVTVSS | 0.00972 |
| VHH 019 (3E11) (VHH, Llama single domain antibody; also called 47(#19); VHCDR3 47(#19); not shown: tags: c-myc tag in periplasmic extract (ELISA, FACS); FLAG and His tags in purified VHH (SPR, infection assays)) VHH: QVQLQESGGGLVQVGSSLRLSCVTSGRTPSRYVMGWFRQAPGQEREFVAAISWSGRAPYADSVKGRFTISRDNAKNTVYLQMNSLKPEDTGVYYCAGGEGAIKWTTLDAYDYWGQGTQVTVSS | 0.0102 |
| VHH 017 (3D03) (VHH, Llama single domain antibody; also called 29(#17); VHCDR3 29(#17); not shown: tags: c-myc tag in periplasmic extract (ELISA, FACS); FLAG and His tags in purified VHH (SPR, infection assays)) VHH: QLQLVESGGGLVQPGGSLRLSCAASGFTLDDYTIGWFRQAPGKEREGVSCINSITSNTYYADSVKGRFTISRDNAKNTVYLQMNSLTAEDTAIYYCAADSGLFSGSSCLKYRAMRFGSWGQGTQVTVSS | 0.083 |
